Attribution: the supplement of paper PMC10567573

B1: INTS3 (parent)
chain: DLNSKGKKREFRFHPIKETVVEEP

# Variants of: B1
# procedure-details: protein stability index of a GFP-peptide fusion (GPS, HEK-293T) (PSI 1-6); higher = more stable;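 note: lentivirally expressed fusions sorted by FACS into six bins by GFP to DsRed ratio, PSI derived from sequencing read proportions per bin multiplied by bin number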
# measurement-conditions: c terminus: a fixed tail appended

mutant-label: S4Q
protein stability index: 1.88
--
mutant-label: K7L
protein stability index: 1.62
--
mutant-label: K7G
protein stability index: 2.28
--
mutant-label: S4Y
protein stability index: 2.24
--
mutant-label: H14Y
protein stability index: 3.74
--
mutant-label: E10T
protein stability index: 1.99
--
mutant-label: D1H
protein stability index: 2.83
--
mutant-label: S4N
protein stability index: 1.99
--
mutant-label: E18Q
protein stability index: 1.58
--
mutant-label: K8F
protein stability index: 2.09
--
mutant-label: H14F
protein stability index: 3.34
--
mutant-label: R12G
protein stability index: 4.24
--
mutant-label: K8E
protein stability index: 2.93
--
mutant-label: D1F
protein stability index: 2.24
--
mutant-label: E23M
protein stability index: 2.02
--
mutant-label: E10Y
protein stability index: 1.49
--
mutant-label: H14M
protein stability index: 3.53
--
mutant-label: F11V
protein stability index: 4.02
--
mutant-label: R9S
protein stability index: 2.53
--
mutant-label: G6H
protein stability index: 2.74
--
mutant-label: E23D
protein stability index: 2.45
--
mutant-label: N3H
protein stability index: 1.88
--
mutant-label: K17I
protein stability index: 1.94
--
mutant-label: E23N
protein stability index: 1.73
--
mutant-label: K17N
protein stability index: 2.6
--
mutant-label: S4F
protein stability index: 2.77
--
mutant-label: P24Q
protein stability index: 2.03
--
mutant-label: K8D
protein stability index: 3.35
--
mutant-label: P15S
protein stability index: 2.37
--
mutant-label: T19P
protein stability index: 1.74
--
mutant-label: N3R
protein stability index: 2.08
--
mutant-label: T19W
protein stability index: 2.05
--
mutant-label: E18M
protein stability index: 2.28
--
mutant-label: K17H
protein stability index: 2.31
--
mutant-label: E22F
protein stability index: 2.01
--
mutant-label: K8T
protein stability index: 2.36
--
mutant-label: K8V
protein stability index: 1.73
